- assaySummary: Growth inhibition of human leukemia cells after 48 hrs by SRB assay
- Format: functional
- statedConditions: Leukemia cell
resultType: TGI (µM)
Write the answer as a number in µM, unit excluded.

Here are 3 molecules together with their reported answers.
COc1cc(CSc2nc3ccc(Cl)cc3c(=O)n2Cc2ccccc2)cc(OC)c1OC; 87.9
COc1ccc(-n2c(SCc3cc(OC)c(OC)c(OC)c3)nc3ccc(C)cc3c2=O)cc1; 90.2
COc1ccccc1-n1c(SCc2cc(OC)c(OC)c(OC)c2)nc2ccc(Cl)cc2c1=O; 86.5

Recorded TGI (molecule "COc1cc(CSc2nc3ccc(C)cc3c(=O)n2Cc2ccccc2)cc(OC)c1OC" ): 85.2

Recorded TGI (molecule "COc1ccc(-n2c(SCc3cc(OC)c(OC)c(OC)c3)nc3ccc(C)cc3c2=O)c(OC)c1" ): 56.2

---

- assaySummary: Growth inhibition of human ACHN cells at 10 uM after 48 hrs by SRB assay relative to control
- Format: functional
- statedConditions: read-out: GI
Respond with 1 for inhibition of growth at 10 µM values of 30% and above, -1 for values below.

Worked set:
COc1ccccc1-n1c(SCc2cc(OC)c(OC)c(OC)c2)nc2ccc(Cl)cc2c1=O; 1
COc1cc2nc(SCc3cc(OC)c(OC)c(OC)c3)n(-c3ccccc3OC)c(=O)c2cc1OC; -1
COc1cc(CSc2nc3ccc(C)cc3c(=O)n2Cc2ccccc2)cc(OC)c1OC; 1
COc1cc(CSc2nc3ccc(Cl)cc3c(=O)n2Cc2ccccc2)cc(OC)c1OC; 1
COc1ccc(-n2c(SCc3cc(OC)c(OC)c(OC)c3)nc3ccc(Cl)cc3c2=O)cc1; -1
COc1cc(CSc2nc3ccc(Cl)cc3c(=O)n2-c2ccccc2)cc(OC)c1OC; -1
COc1ccc(-n2c(SCc3cc(OC)c(OC)c(OC)c3)nc3ccc(C)cc3c2=O)cc1; 1
COc1cc(CSc2nc3ccc(C)cc3c(=O)n2-c2ccccc2)cc(OC)c1OC; 1
COc1cc2nc(SCc3cc(OC)c(OC)c(OC)c3)n(Cc3ccccc3)c(=O)c2cc1OC; 1
COc1ccc(CSc2nc3cc(OC)c(OC)cc3c(=O)n2-c2ccc(OC)cc2OC)cc1; -1

Consider the record given below.
Ask: Does "COc1ccc(-n2c(SCc3cc(OC)c(OC)c(OC)c3)nc3ccc(C)cc3c2=O)c(OC)c1" have a reported inhibition of growth at 10 µM of at least 30%?
Reply: 1

---

- assaySummary: Growth inhibition of human renal cancer cells after 48 hrs by SRB assay
- Assay type: functional
- statedConditions: Cancer cell lines
Lab note: compare GI50 with 10 µM, writing Met if less and Not met if equal or more.

Ask: GI50 under 10 µM? Item: "COc1cc(CSc2nc3ccc(C)cc3c(=O)n2-c2ccccc2)cc(OC)c1OC"
Reply: Met

Ask: GI50 under 10 µM? Item: "COc1ccccc1-n1c(SCc2cc(OC)c(OC)c(OC)c2)nc2ccc(Cl)cc2c1=O"
Reply: Not met

Ask: GI50 under 10 µM? Item: "COc1ccc(-n2c(SCc3cc(OC)c(OC)c(OC)c3)nc3ccc(C)cc3c2=O)cc1"
Reply: Not met

Ask: GI50 under 10 µM? Item: "COc1cc2nc(SCc3cc(OC)c(OC)c(OC)c3)n(Cc3ccccc3)c(=O)c2cc1OC"
Reply: Met

Ask: GI50 under 10 µM? Item: "COc1ccc(-n2c(SCc3cc(OC)c(OC)c(OC)c3)nc3ccc(C)cc3c2=O)c(OC)c1"
Reply: Not met
